The reader will find reported pest or weed control at 500 g/ha values listed item by item below.
# System: Digitaria sanguinalis (DIGSA)
# test_details: Post-emergence efficacy, glasshouse, evaluated after 13 days
# Type: in vivo
# settings: Digitaria sanguinalis, 312 h; post-emergence application, 500 g/Ha, evaluated after 13 days; read-out: Control of weed species DIGSA (100=total damage to plant; 0=no damage to plant)
Numeric answer only, unit % assumed.

- compound: "O=C(Nc1ccccc1O)c1cc[n+](CCS(=O)(=O)[O-])nc1"
  target_desc: "Digitaria sanguinalis (DIGSA)"
  units_symbol: "%"
  observed_result: 50
- compound: "CC(CS(C)(=O)=O)NC(=O)c1cc[n+](CCC(=O)O)nc1 (stereo not shown)"
  target_desc: "Digitaria sanguinalis (DIGSA)"
  units_symbol: "%"
  observed_result: 100
- compound: "C=CCNC(=O)c1cc[n+](CCCOS(=O)(=O)[O-])nc1"
  target_desc: "Digitaria sanguinalis (DIGSA)"
  units_symbol: "%"
  observed_result: 60
- compound: "O=C(O)CC[n+]1ccc(C(=O)NC2C[S+]([O-])C2)cn1 (stereo not shown)"
  target_desc: "Digitaria sanguinalis (DIGSA)"
  units_symbol: "%"
  observed_result: 100
- compound: "CC(CO)NC(=O)c1cc[n+](CCC(=O)O)nc1 (stereo not shown)"
  target_desc: "Digitaria sanguinalis (DIGSA)"
  units_symbol: "%"
  observed_result: 100

Provide one value: measured pest or weed control at 500 g/ha of CC(C#N)NC(=O)c1cc[n+](CCC(=O)O)nc1 (stereo not shown)
100

Provide one value: measured pest or weed control at 500 g/ha of O=C(O)CC[n+]1ccc(C(=O)NCCO)cn1
100

Provide one value: measured pest or weed control at 500 g/ha of O=C(O)CC[n+]1ccc(C(=O)NC2CC2)cn1
100

Provide one value: measured pest or weed control at 500 g/ha of CNC(=O)c1cc[n+](CCC(=O)O)nc1-c1ccccc1
60

Provide one value: measured pest or weed control at 500 g/ha of C#CCNC(=O)c1cc[n+](CCNS(=O)(=O)[O-])nc1
70
